assay remarks: gradient 5% acetonitrile 3 min, to 50% in 2 min, to 85% in 15 min, held 3 min, 100 µL/min
condition parameters: column: Zorbax Extend-C18 2.1 x 50 mm; eluents: water / acetonitrile, 0.1% formic acid
So I've got a bunch of compounds here, and I need their RP-LC retention time values.
Numeric only. Scale: s

Q: Report RP-LC retention time for `O=C(Cc1ccccc1)NCc1nc(-c2cccc(-c3csc(C4CC4)n3)c2)no1`
A: 1070

Q: Report RP-LC retention time for `COc1cccc(C(=O)Nc2c(-c3ccc(F)cc3)nc3ccccn23)c1OC`
A: 667

Q: Tell me measured RP-LC retention time for `COc1ccccc1NC(=O)Cn1nc2cc(C)nc(Nc3ccccc3)n2c1=O` please.
A: 1020

Q: State, in one line, measured RP-LC retention time of `O=C(Cn1cnc2nc(N3CCC(C(=O)NC4CC4)CC3)sc2c1=O)Nc1ccccc1F`
A: 885

Q: Assign RP-LC retention time to the following record: COc1ccc(NC(=O)C2CCCN(c3nnc4c(Cl)cccn34)C2)cc1OC (configuration not stated)
A: 667

Q: Identify measured RP-LC retention time corresponding to `COc1ccc(NS(=O)(=O)c2cc3c(s2)CCN(C(=O)C2CCC2)C3)cc1`
A: 831

Q: # return recorded RP-LC retention time for input CCOc1ccccc1-c1noc(CN2C(=O)C(C)Oc3ccccc32)n1 (configuration not stated)
A: 1130

Q: State its RP-LC retention time: `Cc1cccc(NC(=O)Cn2ncc3c(N4CCN(c5ccccn5)CC4)ncnc32)c1C`
A: 609

Q: Please give the documented RP-LC retention time of Cc1cc(Cl)ccc1NC(=O)C1CC(=O)N(c2ccc3c(c2)CCN3C(=O)C2CC2)C1 (configuration not stated)
A: 843

Q: Answer with the recorded RP-LC retention time of `Cc1cc(C(=O)NCc2ccccc2F)nc2cc(-c3cccs3)nn12` only.
A: 1120

Q: Supply RP-LC retention time value. Item: CCOC(=O)C1CCCN(C(=O)C2c3cc(OC)c(OC)cc3C(=O)N(C)C2c2cccs2)C1 (configuration not stated)
A: 787

Q: Specify measured RP-LC retention time for `Cc1ccc(C)c(NC(=O)NCCc2cn(C)c3ncccc23)c1` .
A: 704

Q: State its RP-LC retention time for this compound: `Cn1nc(C(=O)Nc2ccccc2)c2c1CCN(C(=O)CCC(=O)NC1CC1)C2`
A: 678

Q: Consider the compound `O=C(CCNc1c(-c2ccccc2)nc2cnccn12)NCc1ccccc1F` . State its measured RP-LC retention time.
A: 698

Q: Please report the measured RP-LC retention time for CN(C)c1ccc(CN2C(=O)CN(S(C)(=O)=O)CC2(C)C(=O)NCc2ccc(Cl)cc2)cc1 (configuration not stated)
A: 662

Q: Tell us which RP-LC retention time value is on record for `NC(=O)c1ccccc1NC(=O)C1CCN(C(=O)c2ccccc2F)CC1`
A: 669

Q: Indicate its recorded RP-LC retention time; the compound in question is `CN1CCN(CCNC(=O)CC2CCN(C(=O)c3cc4cc(Cl)ccc4[nH]3)CC2)CC1`
A: 618

Q: // Input: `CCc1cc(=O)n(CC(=O)N(CC)c2ccccc2)c(N2CCOCC2)n1` . Output its RP-LC retention time only.
A: 747

Q: Please report RP-LC retention time for the following compound: `C[C@H]1CC[C@@H]2[C@@H](C)[C@H]3[C@H](C[C@H]4[C@@H]5CC[C@H]6C[C@@H](O)CC[C@]6(C)[C@H]5CC[C@]34C)N2C1`
A: 763

Q: Complete the entry with RP-LC retention time for CCOC(=O)c1[nH]c(C)c(C(=O)C(C)N(CC)C(=O)c2ccc(OC)cc2)c1C (configuration not stated)
A: 795

Q: Provide RP-LC retention time value for the following compound: `COc1ccc2oc(-c3csc(NC(=O)c4c(F)cccc4F)n3)cc2c1`
A: 1010

Q: Identify RP-LC retention time associated with the compound Cc1cc(C(=O)N2CCC3(CCC3O)CC2)no1 (configuration not stated)
A: 636

Q: Recall and state the measured RP-LC retention time for `CC(C)Cc1cc(-c2nn3c(COc4ccc(F)cc4)nnc3s2)n[nH]1` .
A: 936

Q: Answer with the recorded RP-LC retention time of CCc1ccccc1NC(=O)C1CCC(=O)N1S(=O)(=O)c1ccc(C)c(C)c1 (configuration not stated) only.
A: 978

Q: Query RP-LC retention time for `CCN1CCCn2nc(C3CCN(C(=O)c4cncc(Br)c4)CC3)cc2C1=O`
A: 659

Q: Give the value of RP-LC retention time reported for the following: `CN[C@H]1CN(c2ccc3c(=O)c(C(=O)O)cn(-c4nccs4)c3n2)C[C@@H]1OC`
A: 599

Q: Given `COc1cccc(Cn2nc3n(C)c(=O)c4ccc(C(=O)NC5CCCC5)cc4n3c2=O)c1` , respond with its RP-LC retention time.
A: 851

Q: // Input: COc1ccc(CCC(=O)NC(C)C(=O)N2CCN(c3ccccn3)CC2)cc1 (configuration not stated) . Output its RP-LC retention time only.
A: 606

Q: Quickly give me recorded RP-LC retention time for `CCCCn1c(=O)c2ccccc2n(Cc2nc(-c3cccc(C(F)(F)F)c3)no2)c1=O`
A: 1240

Q: Give me measured RP-LC retention time, please, for this compound: CCC1CN2C=NC(N3CCN(C(=O)Nc4cc(C)ccc4OC)CC3)=CC2=N1 (configuration not stated)
A: 658

Q: Retrieve RP-LC retention time measured for `O=C(NCc1noc(Cc2ccccc2)n1)c1ccccc1` and print it.
A: 798

Q: Tell us which RP-LC retention time value is on record for `Cc1ccc(-c2noc(CSc3nc4cc5c(cc4c(=O)n3Cc3ccccc3)OCO5)n2)cc1`
A: 1300

Q: Specify measured RP-LC retention time for `O=C1NC2(CCN(C(=O)Nc3ccc(Br)cc3)CC2)N=C1c1cccc(F)c1` .
A: 893

Q: Identify the reported RP-LC retention time for the following entry. `COc1ccc(NS(=O)(=O)c2cc3n(c2)CCN(CC(C)C)C3=O)cc1Cl`
A: 828

Q: Fill in RP-LC retention time for record `COCC(=O)Nc1ccc2nc(-c3ccc(Cl)cc3)cc(OCC(=O)OC)c2c1`
A: 756

Q: Fill in RP-LC retention time for record `O=C(c1cnccn1)N1CCN(c2nc(-c3ccc(Cl)cc3)no2)CC1`
A: 828

Q: Query RP-LC retention time for Cc1ccc(NC(=O)C2CCCN(S(=O)(=O)c3c[nH]c(C(=O)N4CCCC4)c3)C2)c(C)c1 (configuration not stated)
A: 814
